- System: SW-620 colon
- procedure details: NCI tumour cell line growth inhibition, 48 h
Measured GI50 of individual entries

compound | GI50
CCN(Cc1cc(F)ccc1F)c1ccc(CO)c(Cl)c1 | 0.554 µM
Cn1cccc1-c1cc(-c2ccccc2)[nH]c(=O)c1C#N | > 100 µM
Cc1ccc2nc(-c3ccc(OCC(=O)N=Nc4c(O)[nH]c5ccccc45)cc3)[nH]c2c1 | 2.02 µM
CNNC(=N\S(=O)(=O)c1cc(C)c(Cl)cc1SCc1ccccc1)/N=C/c1ccc([N+](=O)[O-])s1 | 30.9 µM
NS(=O)(=O)c1ccc(N2N=C3c4ccccc4CC3C2c2cccs2)cc1 (stereo unspecified) | 35.4 µM

Look at this compound and give its reported GI50. "CCOc1ccc2c(c1)C(=O)c1c-2n(CCCBr)c(=O)c2cc([N+](=O)[O-])ccc12"
4.63 µM
